Values from patent US20250092108A1

- Measured on: T1, human CD25 (IL-2Rα) (human, UniProt P01589 22-213)
- T1 chain: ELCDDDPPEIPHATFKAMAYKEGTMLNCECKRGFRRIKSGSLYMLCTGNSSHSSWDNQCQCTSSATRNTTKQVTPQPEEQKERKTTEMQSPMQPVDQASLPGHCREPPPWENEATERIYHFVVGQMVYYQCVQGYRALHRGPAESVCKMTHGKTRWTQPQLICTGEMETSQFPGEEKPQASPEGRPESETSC
- Experimental protocol: Biacore; pH 6.0
In this section, each of the binders is paired with its reported Kd.
Quantity kind: Kd (nM)

Binder | Output unit | Test result
XENP14217 (R38P T41R C125S) (protein) APTSSSTKKTQLQLEHLLLDLQMILNGINNYKNPKLTPMLRFKFYMPKKATELKHLQCLEEELKPLEEVLNLAQSKNFHLRPRDLISNINVIVLELKGSETTFMCEYADETATIVEFLNRWITFSQSIISTLT | nM | 1710
XENP14214 (R38N T41R C125S) (protein) APTSSSTKKTQLQLEHLLLDLQMILNGINNYKNPKLTNMLRFKFYMPKKATELKHLQCLEEELKPLEEVLNLAQSKNFHLRPRDLISNINVIVLELKGSETTFMCEYADETATIVEFLNRWITFSQSIISTLT | nM | 57200
XENP14207 (T41D F42Y C125S) (protein) APTSSSTKKTQLQLEHLLLDLQMILNGINNYKNPKLTRMLDYKFYMPKKATELKHLQCLEEELKPLEEVLNLAQSKNFHLRPRDLISNINVIVLELKGSETTFMCEYADETATIVEFLNRWITFSQSIISTLT | nM | 319
XENP14213 (R38Q F42Y C125S) (protein) APTSSSTKKTQLQLEHLLLDLQMILNGINNYKNPKLTQMLTYKFYMPKKATELKHLQCLEEELKPLEEVLNLAQSKNFHLRPRDLISNINVIVLELKGSETTFMCEYADETATIVEFLNRWITFSQSIISTLT | nM | 2430
